This collection of values is drawn from paper PMC10226046.

Below: a set of entries, each annotated with reported CC50 at 72 h.
# Assay Text: Neutral red dye uptake cytotoxicity assay in ARPE-19 cells
# Experimental Context: human
Quantity: CC50 at 72 h

- CC(C)(C)C(=O)OCOP(=O)(OCOC(=O)C(C)(C)C)OC[C@H]1OC[C@@H](n2cc(/C=C/Br)c(=O)[nH]c2=O)O1 [POM-L-BHDU-MP (41), Bis(POM) Prodrug of L-BHDU-MP]: > 100 µM
- CC(C)[C@@H](N)C(=O)OC[C@H]1OC[C@@H](n2cc(/C=C/Br)c(=O)[nH]c2=O)O1.Cl [L-BHDU-L-valine (17), L-BHDU-5′-O-L-valyl Ester Hydrochloride]: > 100 µM
- O=c1[nH]c(=O)n([C@@H]2CO[C@H](CO)O2)cc1/C=C/Br [L-BHDU (1)]: > 100 µM
- Cl.NCCCC[C@H](N)C(=O)OC[C@H]1OC[C@@H](n2cc(/C=C/Br)c(=O)[nH]c2=O)O1 [L-BHDU-L-lysine (25), L-BHDU-5′-O-L-lysine Ester Hydrochloride]: > 100 µM
- Nc1ccn(C[C@@H](CO)OCP(=O)(O)O)c(=O)n1 [cidofovir (CDV), cidofovir, reference compound]: > 100 µM
- CC(C)(N)C(=O)OC[C@H]1OC[C@@H](n2cc(/C=C/Br)c(=O)[nH]c2=O)O1.Cl [L-BHDU-2-aminoisobutyric acid (24)]: > 100 µM
